Data origin: patent US10053468B2

tgt: RORγt (Homo sapiens)
Sequence (P51449 1-497 isoform P51449-2): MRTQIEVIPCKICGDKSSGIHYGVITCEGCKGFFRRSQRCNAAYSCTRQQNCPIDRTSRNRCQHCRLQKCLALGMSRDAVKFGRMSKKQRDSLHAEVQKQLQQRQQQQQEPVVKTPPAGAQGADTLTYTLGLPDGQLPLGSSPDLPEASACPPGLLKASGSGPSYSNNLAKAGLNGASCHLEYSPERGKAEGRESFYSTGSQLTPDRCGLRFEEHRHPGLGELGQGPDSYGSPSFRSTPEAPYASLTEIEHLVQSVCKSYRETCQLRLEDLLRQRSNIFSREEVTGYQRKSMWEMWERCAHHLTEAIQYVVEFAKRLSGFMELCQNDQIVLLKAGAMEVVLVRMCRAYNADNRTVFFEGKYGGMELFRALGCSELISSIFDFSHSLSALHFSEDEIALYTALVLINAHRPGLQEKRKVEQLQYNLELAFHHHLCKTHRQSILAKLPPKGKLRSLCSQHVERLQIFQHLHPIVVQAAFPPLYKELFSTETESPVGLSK
runDescription: Cofactor recruitment test (Alpha Screen, biotinylated SRC-1 peptide)
Assay type: biochemical
conditionDetails: read-out: Signal value inhibitory rate at test compound 1 μM (%)
measurementName: inhibition at 1 µM (%)
Give bare numbers, in %.

Below, 5 molecules whose answers are already recorded.
INSERT INTO results (molecule, measurementname, measurement) VALUES
  ('COCc1ccc2c(c1)CCN(C(=O)c1cc(O)no1)[C@H]2C(=O)Nc1cc(F)c2c(c1)CCC2(C)C', 'inhibition at 1 µM', 96),
  ('COc1ccc2c(c1)CCN(C(=O)c1ccc(=O)[nH]c1)[C@H]2C(=O)Nc1ccc([Si](C)(C)C)c(F)c1', 'inhibition at 1 µM', 81.2),
  ('COc1ccc2c(c1)CCN(C(=O)c1ccc(=O)[nH]c1)C2C(=O)Nc1ccc([Si](C)(C)C)c(F)c1 (stereo not shown)', 'inhibition at 1 µM', 81.9),
  ('COc1ccc2c(c1)CCN(C(=O)Cc1cc(O)no1)[C@H]2C(=O)Nc1cc(F)c([Si](C)(C)C)c(F)c1', 'inhibition at 1 µM', 99),
  ('CC[Si](C)(C)c1c(F)cc(NC(=O)[C@H]2c3ccc(OC)nc3CCN2C(=O)Cc2cc(O)no2)cc1F', 'inhibition at 1 µM', 99);

For each of the molecules below, state inhibition at 1 µM.
1. CCOCC(C)(C)c1c(F)cc(NC(=O)[C@H]2c3ccc(OCC)cc3CCN2C(=O)Cc2cc(O)no2)cc1F
2. CCOc1ccc2c(c1)CCN(C(=O)CCCC(=O)O)[C@H]2C(=O)Nc1cc(F)c2c(c1)CCC2(C)C

1: 86; 2: 67
